tested on: XF 498 CNS; assay: NCI tumour cell line growth inhibition, 48 h
Observed property: TGI

Q: Quickly give me recorded TGI for "COc1cc2c(c(OC)c1OC)-c1ccc(OC)c(=O)cc1[C@@H](N(C)C=O)CC2"
Ans: > 23 µM

Q: Quickly give me recorded TGI for "Cc1c(N=Cc2ccc(N(CCC#N)CCC#N)cc2)c(=O)n(-c2ccccc2)n1C"
Ans: > 80.6 µM

Q: Quickly give me recorded TGI for "C1=Nc2ccccc2C=Nc2ccccc2C=Nc2ccccc2C=Nc2ccccc21.[Cl-].[Pt+2]"
Ans: 51.1 µM

Q: Quickly give me recorded TGI for N#CC1C2CCC3(CC2CCN1C(=O)c1ccccc1)OCCO3 (configuration not stated)
Ans: > 100 µM

Q: Quickly give me recorded TGI for "O=c1c2cccnc2ncn1CCN1CCCC1"
Ans: > 100 µM

Q: Quickly give me recorded TGI for "NC1(C(=O)O)CCCC1"
Ans: 6.25 µM

Q: Quickly give me recorded TGI for "NS(=O)(=O)c1ccc(NC(=O)c2cccc3cc4ccccc4nc23)cc1"
Ans: > 100 µM

###

Task for the reader: assign each of the following molecules its reported TGI.
test system: K-562 leukemia; assay: NCI tumour cell line growth inhibition, 48 h

Q: Quickly give me recorded TGI for "NC(=O)c1ccc2nc3c(n2c1)C(=O)C(=O)c1ccccc1-3"
Ans: 3.73 µM

Q: Quickly give me recorded TGI for "Clc1nc(Cl)c(CBr)c(Cl)n1"
Ans: > 23.5 µM

Q: Quickly give me recorded TGI for "N#C/C(=C\c1ccc(Br)cc1)n1nnc2ccccc21"
Ans: > 19.7 µM

Q: Quickly give me recorded TGI for O=C(CC1C=CCS1(=O)=O)NCc1ccccc1 (centres undefined)
Ans: > 100 µM

Q: Quickly give me recorded TGI for O=C(NCc1ccncc1)C1COc2cc(-c3cc(=O)c4ccccc4o3)ccc2O1 (centres undefined)
Ans: > 100 µM

Q: Quickly give me recorded TGI for CC(NC(C#N)CC12CC3CC(CC(C3)C1)C2)c1ccccc1 (centres undefined)
Ans: > 100 µM

Q: Quickly give me recorded TGI for "O=C(Nc1cccc(-n2cc(-c3ccncc3)c(-c3ccc(O)c(Cl)c3)n2)c1)Nc1cccc(C(F)(F)F)c1"
Ans: > 100 µM

Q: Quickly give me recorded TGI for Cc1ccc(C(=O)Nc2ccc(S(=O)(=O)O)c3cc(S(=O)(=O)O)cc(S(=O)(=O)O)c23)cc1NC(=O)c1cccc(NC(=O)Nc2cccc(C(=O)Nc3cc(C(=O)Nc4ccc(S(=O)(=O)O)c5cc(S(=O)(=O)O)cc(S(=O)(=O)O)c45)ccc3C)c2)c1 (tested in a mixture with another compound)
Ans: > 50 µM

Q: Quickly give me recorded TGI for "COc1ccc(Oc2nc(C#CC(C)(C)O)nc(Oc3ccc(OC)cc3)n2)cc1"
Ans: > 100 µM

Q: Quickly give me recorded TGI for "c1ccc(N=C2SC3=NCCN3C2=Nc2ccccc2)cc1"
Ans: > 100 µM

Q: Quickly give me recorded TGI for "COc1cc2c(cc1OC)-c1cc3cc(OC)c(OC)cc3c(=O)n1CC2"
Ans: > 100 µM

Q: Quickly give me recorded TGI for "CCN(CC)CCCOc1cc2c(cc1OC)C(=O)N1CCC[C@H]1C=N2"
Ans: > 100 µM

Q: Quickly give me recorded TGI for "CCOC(=O)/C(=C\c1ccc[nH]1)C(=O)c1ccccc1"
Ans: > 100 µM

Q: Quickly give me recorded TGI for "O=[N+]([O-])c1ccc2nc3ccccc3cc2c1"
Ans: 8.79 µM

Q: Quickly give me recorded TGI for C#CC(O)/C=C/C(O)CCCC(O)CC#CC(O)C#CC(O)CCCC(O)/C=C/CCCC(=O)CCCCCCCCCCCCCCCC(O)C(O)C#CC(=O)O (centres undefined)
Ans: > 50 µM

Q: Quickly give me recorded TGI for CC(=O)N1c2ccccc2C(C)C1c1[nH]c2ccccc2c1C (centres undefined)
Ans: > 100 µM

Q: Quickly give me recorded TGI for CC(C)C1CC[C@H](C)C[C@@H]1OC(=O)C(C(=O)O[C@H]1C[C@@H](C)CCC1C(C)C)C(O)[C@@H]1OC(C)(C)O[C@H]1C1COC(C)(C)O1 (some centres undefined)
Ans: 32.2 µM

Q: Quickly give me recorded TGI for "CC(C)C(=O)/C=C/c1ccc(Cl)c(Cl)c1"
Ans: 72.2 µM

Q: Quickly give me recorded TGI for "O=C(/C=C/c1ccccc1Cl)c1ccc(Cl)cc1Cl"
Ans: 11.7 µM

###

system: A549 NSCLC; test: NCI tumour cell line growth inhibition, 48 h
Observed property: TGI (µM)
Field format: number, assumed µM, no unit text.

Q: Quickly give me recorded TGI for "CC(C)C(=O)/C=C/c1ccc(Cl)c(Cl)c1"
Ans: 49.2

Q: Quickly give me recorded TGI for "Cc1c2c(cc3c(=O)ccn(CCN(C)C)c13)c(=O)ccn2CCN(C)C"
Ans: 48.9

Q: Quickly give me recorded TGI for CC(=O)OCC1OC(O/C=C(\CN=[N+]=[N-])C(C)=O)C(OC(C)=O)C(OC(C)=O)C1OC(C)=O (stereo not given)
Ans: 46.2

###

test system: UACC-257 melanoma; test: NCI tumour cell line growth inhibition, 48 h
Task for the reader: assign each of the following compounds its reported TGI.

Q: Quickly give me recorded TGI for Cc1ccc(S(=O)(=O)NC(=O)NC(Cc2ccc(O)c(O)c2)C(=O)O)cc1 (stereo unspecified)
Ans: > 100 µM

Q: Quickly give me recorded TGI for "C=CCN(c1cc(OC)c2[nH]cc(C)c2c1[N+](=O)[O-])S(C)(=O)=O"
Ans: > 100 µM

Q: Quickly give me recorded TGI for COC1=C(Br)C(=O)C2=C(C1=O)C1C3=C(C(=O)C=CC3=O)C2c2ccccc21 (stereo unspecified)
Ans: > 100 µM

Q: Quickly give me recorded TGI for CCCCCCC(C)OC(=O)/C=C(\CC(=O)OC(C)CCCCCC)C(=O)OC(C)CCCCCC (stereo unspecified)
Ans: > 100 µM

Q: Quickly give me recorded TGI for "c1ccc(-c2cc(-c3cccs3)c(-c3cccs3)o2)cc1"
Ans: > 100 µM

Q: Quickly give me recorded TGI for "CSCCC(NC(=O)OCc1ccccc1)NC(=O)OCc1ccccc1"
Ans: > 100 µM

Q: Quickly give me recorded TGI for NC(=O)CC(N=C1C(=O)OC(C(O)CO)C1=NC(CC(N)=O)C(=O)O)C(=O)O (stereo unspecified)
Ans: > 100 µM

Q: Quickly give me recorded TGI for "NS(=O)(=O)c1ccc(NC(=O)c2cccc3cc4ccccc4nc23)cc1"
Ans: > 100 µM

Q: Quickly give me recorded TGI for "Clc1ncc(Cl)c(Cl)n1"
Ans: 14.3 µM

Q: Quickly give me recorded TGI for "NC1(C(=O)O)CCCC1"
Ans: > 625 µM

Q: Quickly give me recorded TGI for "CN(C)CCCn1c2nc(=O)[nH]c(=O)c-2nc2cc(Cl)c(Cl)cc21"
Ans: 5.66 µM

###

tested on: MCF7 breast; experiment: NCI tumour cell line growth inhibition, 48 h
Observed property: TGI (µM)
Field format: number, assumed µM, no unit text.

Q: Quickly give me recorded TGI for "COc1ccc(Oc2nc(C#CC(C)(C)O)nc(Oc3ccc(OC)cc3)n2)cc1"
Ans: 3.15

Q: Quickly give me recorded TGI for "CCOc1ccc2nc(NC(NC(=O)c3cccnc3)(C(F)(F)F)C(F)(F)F)sc2c1"
Ans: 91.4

Q: Quickly give me recorded TGI for C=C1C[C@@]2(C)C(CC[C@]3(C)C2CC=C2C4CC(C)(C)C[C@@H](OC(=O)/C(C)=C\C)[C@]4(C(=O)O)CC[C@]23C)C(C)(C)C1=O (stereo not given in full)
Ans: 19.2

Q: Quickly give me recorded TGI for "O=C(Nc1cccc(-n2cc(-c3ccncc3)c(-c3ccc(O)c(Cl)c3)n2)c1)Nc1cccc(C(F)(F)F)c1"
Ans: 6.59

Q: Quickly give me recorded TGI for "Clc1nc(Cl)c(CBr)c(Cl)n1"
Ans: 26

###

system: OVCAR-5 ovarian; test: NCI tumour cell line growth inhibition, 48 h
Observed property: GI50

Q: Quickly give me recorded GI50 for CC(=O)OC1Oc2ccccc2-c2oc(=O)c(-c3cc4ccccc4oc3=O)cc21 (stereo unspecified)
Ans: 35 µM

Q: Quickly give me recorded GI50 for "CCOC(=O)Nc1nc2c(C)cccc2s1"
Ans: 66.8 µM

Q: Quickly give me recorded GI50 for "COc1ccc2c(c1)/C(=N/OC(C)=O)c1c-2c(=O)[nH]c2ccccc12"
Ans: 11.5 µM

Q: Quickly give me recorded GI50 for "COc1ccc(-c2csc(NC(=O)c3cc(O)c(O)c(O)c3)n2)cc1"
Ans: > 33.3 µM

Q: Quickly give me recorded GI50 for "Cn1c(=O)c(Oc2ccccc2)cc2cnc(NC3CCOCC3)nc21"
Ans: > 25 µM

Q: Quickly give me recorded GI50 for "COc1ccccc1/C=C/C(=O)/C=C/c1ccccc1OC"
Ans: 3.16 µM
